# experimentSummary: yeast display, Sf9 membrane polyspecificity reagent, FACS + sequencing; frameworks hold sequencing errors
quantityKind: polyreactivity (PSR sort gate)

Answered cases to consult:
QVQLVESGGGLVQAGGSLRLSCAASGRIFGLYVLGGYRQAPGKERELVAAIDDSGGDTYDADSVKGRFTISRDNAKNTVYIQMNSLKPEDTAVYYCPADYWGYYYGGYYYLRDYWGQGTQVTVSS : high polyreactivity
QVQLVETGGGLVQAGGSLRLSCAASGSIFGDNAMGWYRQAPGKERELVAAIDQSGDSTYYADSVKGRFTISRDNAKNTVYLQMNSLKPEDTAVYYCAAQSYDYWYDYDYWGQGTQVTVSS : high polyreactivity
QVQLVESGGGLVQAGGSLRLSCAASGRTFVNYAMGWYSQAPGKERELVAAISWTDDDTYYADSVKGRFTISRDNAKNTVYLQMNSLKPEDTAVYYCATDYDSYDYWGQGTQVTVSS : low polyreactivity
QVQLVESGGGLVQAGGSLRLSCAASGIIFPYYAMGWYRQAPGKERELVAAISIDGSTNYAVSVKGRFTISRDNAKNTVYLQMNSLKPEDTAVYYCNTTAFSTYQVGFLYDYWGQGTQVTVSS : low polyreactivity

Now consider the entry below.
Task: Give its polyreactivity (PSR sort gate) value. Item: QVQLVESVRRLVQAGGSLRLSCAASGSIYYPYAMGWYRQAPGKEMELVAAITGHGGSTYYADSVKGRFTISRDNAKNTVYLQMNSLNPEDTAVYYCATGGYQPVLHRGYYRFNYWGQGTQVTVSS
Output: low polyreactivity

----------
# experimentSummary: yeast display, Sf9 membrane polyspecificity reagent, FACS + sequencing; frameworks hold sequencing errors
quantityKind: polyreactivity (PSR sort gate)

QVLLVESGGGLVQAGGSLRLSCAASGFTFGTNAMVWYRQAPGKERELVAAISSRGGSTYYADSVKGRFTISRDNAKNTVYLLMNSLNPEDTAVYYCARRVARRQHEYGYWGQGTQVTVSS : high polyreactivity
QVQHVESGGALVQAGGSLRLSCAASGITFDYYVMGWYRTAPGKERELVAGISSGGSTYYADSVKGRFTISRDNAKNTVYLQMNSLKPEDTAVYYCNARRRRLVSVGYYYNYDYWGQGTQVTVSS : high polyreactivity

----------
# experimentSummary: yeast display, Sf9 membrane polyspecificity reagent, FACS + sequencing; frameworks hold sequencing errors
quantityKind: polyreactivity (PSR sort gate)

QVKLVESAGGLVQAGGSLRLSCAASGSIFNPYDMGWYRQAPGKERELVAAIDWSGGSTYYADSVKGRFTISRDNAKNTVYLQMNSLKPEDTAVYYCNAESYQDTLFGADNDYDYWGQGTQVTVSS : low polyreactivity
QVQLVESGGGLVQAGGSLRLSCAASGSTFGKNAMGWYRQAPGKERELVAAISRSGGRTYYADSVKGRFTISRDNAKNTVYLQMNSLKPEDPAVYYCAREWYTAGSGDYWGQGTQVTVSS : low polyreactivity

----------
# experimentSummary: yeast display, Sf9 membrane polyspecificity reagent, FACS + sequencing; frameworks hold sequencing errors
quantityKind: polyreactivity (PSR sort gate)

Use these answered entries as a reference point.
QVQLVESGGGLVQAGGSLRLSCAASGITFDSNAMGWYRQAPGKERELVAVISSSGGSTNYADSVKGRFTISRDNAKNTVYLQMKSLKPEDTAVYYCAADYRFYYTRWEYSFNYWGQGTQVTVSS : high polyreactivity
QVQLVESGGGLVQAGGSLRLSCAASGSTLSYYAMGWYRQAPGKEREWVAAISLSVGSTYYADSVKGRFTISRDNAKNTVYLQMNSLKPEETAVYYCAADDFYSGPFRGDYWGQGTQVTVSS : low polyreactivity
QVQLVESGGGLVQAGGSLRLSCAASGRIFVPNPMGWYRQAPGKDRELVAAITNGGRTKYADSVKGRFTISRDNAKNTVYLQMNSLKPEDTAVYYCAADLYRWFYYWGQGTQVTVSS : high polyreactivity
QVQLVESGGGLVQAGGRLRLSCAASGSTIPRNAMGWYRHAPGKERELVAAITSGGSTNYADSVKGRFTISRDNAKNTVYLQMNSLKPEDTAVYYCAADEQVNTQYVVWGDYWGQGTQVTVSS : low polyreactivity
QVQLVESGGGLVQAGGSLRLSCAASGSILARYAMGWYRQAPGKERELVAAISSRGGSTYYADSVKGRFTISRDNAKNTVYLQMNSLKPEDTAVYYCAAYVYLQVEYDYWGQGTQVTVSS : low polyreactivity

Task: Query: polyreactivity (PSR sort gate); subject: QVQLVESGGGLVQAGGSLRLSCAASGSTFGYYAMGWYRQAPGKERELVAAISYSGGSTYYADSVKGRFTISRDNAKNTVYLQMNSLKPEDTAVYYCAARLTRQMYYWGQGTQVTVSS
Output: high polyreactivity

Task: Please give the result for QVHLVDSGGGLVQAGGSLRLSCATSGRIFGAYAMVWYRQAPGKESELVAAITSRGGNTYYADSVKGRFTISRDNAKNTVYLQMNSLKPEDTAVYYCAAGHDKRRQYYVGQSAFDYWGQGTQLTVSS too.
Output: low polyreactivity

Task: QVQLVESGGGLVQAGGSLRLSCAASGRTFDPYAMGWYRQAPGKERELVAAITSSGGSTYYADSVKGRFTISRDNAKNTVYLQMNSLKPEDTAVYYCAAEQRDFIWWFYYWGQGTQVTVSS ?
Output: high polyreactivity

Task: Same question, QVQLVESGGGLVQAGGSLRLSCAASGSIFAYYTMGWYRQAPGNERELVAALSRSGGSTNYADSVKGRFTISRDNAKNTVYLQMISLKPEDTAVYYCAVRRYSRRLFGYYYWGQGTQVTVSS this time
Output: high polyreactivity

Task: Check QVQLVESGGGLVQAGGSLRLSCAASGFIFYEYDMGWYRQAPGKEGELVAAISVSGGSTYYADSVKGRFTISRDNAKNTVYLQMNSLKPEDTAVYYCAVFLPDYGRYDYWGQGTQVTVSS too.
Output: low polyreactivity

Task: And then QVQLVESGGGLVQAGVSLRLSCAASGSTFGENDMGWYRQAPGKERELVAAITWSGGSTYYADSVKGRFTISRDNAKNTVYLQMNSLNPEVTAVYYCNAEGVGRYSPVSHTFDYWGQGTQVTVSS , what is it?
Output: low polyreactivity
